Data credit: PubChem BioAssay (NCI)

# assay_info: NCI Yeast Anticancer Drug Screen. Data for the mec2-1 strain (AID 157)
# condition_context: S. cerevisiae mec2-1 strain, at 50.0 µM, hits give high values
About 79,000 compounds went through this panel and 15% of them were active in at least one assay; those are over-represented in the sample as a whole.
We use 40% as the dividing line for growth inhibition: on or above the line is class 1, below is class 0.

Known results for molecules:
### Prompt Answer whether growth inhibition of Nc1ccc2c(c1)C(=O)c1ccccc1-2 is greater than or equal to 40%.
### Response class 0

### Prompt Kindly determine if growth inhibition recorded for Cc1ccc(SSCCCCS(=O)O)cc1 is above or exactly 40%.
### Response class 1

### Prompt Please check the record O=C(O)c1cccc(N=Nc2c(S(=O)(=O)O)ccc3c2C(=O)c2ccccc2C3=O)c1O and state if its growth inhibition is at or above 40%.
### Response class 0

### Prompt Answer whether growth inhibition of CCOC(=O)c1[nH]c(Br)c(-c2ccc(OC)c(OC)c2)c1Br is greater than or equal to 40%.
### Response class 1

### Prompt Please tell me: is the molecule O=c1c2ccccc2[nH]c2c1[nH]c1ccccc12 at or over 40% in terms of growth inhibition?
### Response class 0

Turning now to a further record.
### Prompt Assess whether reported growth inhibition for Cc1ccc(NC(=O)/C(CC(=O)c2sc(Nc3ccc(Cl)c(Cl)c3)nc2C)=N\Nc2ccc([N+](=O)[O-])cc2[N+](=O)[O-])c(C)c1 sits at 40% or higher.
### Response class 1
